Test system: Plasmodium falciparum
Test: Antimalarial activity against chloroquine,mefloquine-sensitive Plasmodium falciparum D6
Assay type: functional, organism-based
Param label: returns yes (1) when IC90 < 300 nM, returns no (0) otherwise, including exact equality.

ITEM SMILES: Clc1ccc2c(NCCNCCC34CC5CC(CC(C5)C3)C4)ccnc2c1
ASSAY SYSTEM: Plasmodium falciparum
LABEL: yes (1)
//
ITEM SMILES: Clc1ccc2c(NCCCNCCC34CC5CC(CC(C5)C3)C4)ccnc2c1
ASSAY SYSTEM: Plasmodium falciparum
LABEL: yes (1)
//
ITEM SMILES: CC(=O)O[C@@H]1CC[C@@]2(C)[C@@H](C1)C[C@@H](OC(C)=O)[C@@H]1[C@@H]2C[C@H](OC(C)=O)[C@]2(C)[C@@H]([C@H](C)CCC(=O)NCCNc3ccnc4cc(Cl)ccc34)CC[C@@H]12
ASSAY SYSTEM: Plasmodium falciparum
LABEL: yes (1)
//
ITEM SMILES: COC(=O)CC[C@@H](C)[C@H]1CC[C@H]2[C@@H]3[C@H](OC(C)=O)C[C@@H]4C[C@H](Nc5ccnc6cc(Cl)ccc56)CC[C@]4(C)[C@H]3C[C@H](OC(C)=O)[C@]12C
ASSAY SYSTEM: Plasmodium falciparum
LABEL: yes (1)
//
ITEM SMILES: O=C(NCCCCCNc1ccnc2cc(Cl)ccc12)C12CC3CC(CC(C3)C1)C2
ASSAY SYSTEM: Plasmodium falciparum
LABEL: no (0)
//
ITEM SMILES: O=C(NCCCNc1ccnc2cc(Cl)ccc12)C12CC3CC(CC(C3)C1)C2
ASSAY SYSTEM: Plasmodium falciparum
LABEL: no (0)

* * *

Tested on: Plasmodium falciparum
Assay: Antimalarial activity against chloroquine,mefloquine-sensitive Plasmodium falciparum D6
Format: functional, organism-based
PROPERTY MEASURED: log10 of IC90 (log10 of the value in nM)

ITEM SMILES: COC(=O)CC[C@@H](C)[C@H]1CC[C@H]2[C@@H]3[C@H](OC(C)=O)C[C@@H]4C[C@H](OCCNc5ccnc6cc(Cl)ccc56)CC[C@]4(C)[C@H]3C[C@H](OC(C)=O)[C@]12C
log10 of IC90: 2.00
//
ITEM SMILES: CC(=O)O[C@@H]1CC[C@@]2(C)[C@@H](C1)C[C@@H](OC(C)=O)[C@@H]1[C@@H]2C[C@H](OC(C)=O)[C@]2(C)[C@@H]([C@H](C)CCC(=O)Nc3ccnc4cc(Cl)ccc34)CC[C@@H]12
log10 of IC90: 3.84
//
ITEM SMILES: Clc1ccc2c(NCCCN(CCC34CC5CC(CC(C5)C3)C4)CCC34CC5CC(CC(C5)C3)C4)ccnc2c1
log10 of IC90: 1.89
//
ITEM SMILES: O=C(CC12CC3CC(CC(C3)C1)C2)NCCNc1ccnc2cc(Cl)ccc12
log10 of IC90: 2.20
//
ITEM SMILES: C[C@@H]1CC[C@H]2[C@@H](C)C(=O)O[C@@H]3O[C@@]4(C)CC[C@@H]1[C@]32OO4
log10 of IC90: 1.11
//
ITEM SMILES: Clc1ccc2c(NCCNCC34CC5CC(CC(C5)C3)C4)ccnc2c1
log10 of IC90: 0.92
//
ITEM SMILES: CC(=O)O[C@@H]1CC[C@@]2(C)[C@@H](C1)C[C@@H](OC(C)=O)[C@@H]1[C@@H]2C[C@H](OC(C)=O)[C@]2(C)[C@@H]([C@H](C)CCCNc3ccnc4cc(Cl)ccc34)CC[C@@H]12
log10 of IC90: 1.85
//
ITEM SMILES: CC(=O)O[C@@H]1CC[C@@]2(C)[C@@H](C1)C[C@@H](OC(C)=O)[C@@H]1[C@@H]2C[C@H](OC(C)=O)[C@]2(C)[C@@H]([C@H](C)CCCNCCNc3ccnc4cc(Cl)ccc34)CC[C@@H]12
log10 of IC90: 1.53
//
ITEM SMILES: COC(=O)CC[C@@H](C)[C@H]1CC[C@H]2[C@@H]3[C@H](OC(C)=O)C[C@@H]4C[C@H](NCCNc5ccnc6cc(Cl)ccc56)CC[C@]4(C)[C@H]3C[C@H](OC(C)=O)[C@]12C
log10 of IC90: 1.09
//
ITEM SMILES: Clc1ccc2c(NCCCNCC34CC5CC(CC(C5)C3)C4)ccnc2c1
log10 of IC90: 0.81
//
ITEM SMILES: COC(=O)CC[C@@H](C)[C@H]1CC[C@H]2[C@@H]3[C@H](OC(C)=O)C[C@@H]4C[C@@H](NCCNc5ccnc6cc(Cl)ccc56)CC[C@]4(C)[C@H]3C[C@H](OC(C)=O)[C@]12C
log10 of IC90: 1.02
//
ITEM SMILES: Clc1ccc2c(NCCCCCNCC34CC5CC(CC(C5)C3)C4)ccnc2c1
log10 of IC90: 1.28
